# credit: the kinase profiling compilation of Christmann-Franck et al. (2016)

# SYSTEM_TESTED: PIK3CB (human)
# EXPERIMENT: KINOMEscan competition binding
# CONDITION_INFO: compound 10.0 µM
Listed compounds paired with reported kinase still bound, per cent of control
Enter your answer as a number in %; do not include the unit.

Below, each entry is followed by its recorded kinase still bound, per cent of control result.
Cn1c(=O)n(-c2ccc(C(C)(C)C#N)cc2)c2c3cc(-c4cnc5ccccc5c4)ccc3ncc21 : 22
O=C1Nc2ccc(I)cc2/C1=C/c1cc(Br)c(O)c(Br)c1 : 100
N#Cc1c(NC(=O)c2cccc3ccccc23)sc2c1CCCC2 : 100
OCCCNc1cc(-c2ccnc(Nc3cccc(Cl)c3)n2)ccn1 : 100
CCCS(=O)(=O)Nc1ccc(F)c(C(=O)c2c[nH]c3ncc(-c4ccc(Cl)cc4)cc23)c1F : 100
Cc1ccc(NC(=O)c2cccc(C(C)(C)C#N)c2)cc1Nc1ccc2ncn(C)c(=O)c2c1 : 100
Cc1ccc2nc(NCCN)c3ncc(C)n3c2c1 : 88
C=CC(=O)Nc1cccc(Oc2nc(Nc3ccc(N4CCN(C)CC4)cc3OC)ncc2Cl)c1 : 100
O=C(O)c1ccc(Nc2ncc3c(n2)-c2ccc(Cl)cc2C(c2c(F)cccc2F)=NC3)cc1 : 100

Could you now consider this next compound?
Ask: Dear colleague, please send me the reported kinase still bound, per cent of control for `C=CC(=O)Nc1cccc(Nc2nc(N[C@H]3CC[C@H](N(C)C)CC3)nc3c2ncn3C(C)C)c1` when you can.
Result: 100
